# assay_summary: S. pombe growth modifiers, basal conditions – strain 972, OD600, 24 h, no modulator, primary screen (AID 1090);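 note: basal condition with compound alone and no growth modifier present; test concentration not given here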
# condition_label: S. pombe 972 growth, higher = more signal, called active from +8 up or from −8 down
Returns rule met if the recorded z-score is greater than or equal to 0.01, and rule not met otherwise.

Worked cases, answers included:
compound	discrete_label
C=CCOC(=O)[C@H]1[C@@H]2C(=O)O[C@@H](c3ccccc3)[C@@H](c3ccccc3)N2[C@@H](c2ccc(OCCOC(=O)[C@H]3C[C@H]4C(=O)N[C@@H](CCCCN(C)C)C(=O)N4[C@H]3c3ccc(O)cc3)cc2)[C@]12C(=O)Nc1ccccc12	rule not met
CC(C)(C)OC(=O)CC[C@]1(C(=O)O)COC(c2ccc(OCCCO)cc2)=N1	rule met
COc1ccc([Si](C)(C)[C@@H]2[C@@H](CCO)O[C@]3(C(=O)N(Cc4ccc(N5C(=O)c6ccccc6Oc6ccccc65)cc4)c4ccccc43)[C@H]2C)cc1	rule met
COCC(=C=CC[C@@H](O)c1ccccc1OCCO)C[C@@H](O)COCc1ccccc1	rule not met
O=C1O[C@@H](c2ccccc2)[C@@H](c2ccccc2)N2[C@@H](c3ccc(O)cc3)[C@]3(C(=O)Nc4ccc(C#CC5=CCCCC5)cc43)[C@@H](C(=O)Nc3nc4ccccc4s3)[C@H]12	rule met

Ask | Check the entry CC(C)=CCCC(C)=CC(O)C1C=CC2C(=O)N(c3ccccc3)C(=O)C2N1Nc1ccc([N+](=O)[O-])cc1 (stereo unspecified) : does z-score equal or exceed 0.01?
Reply | rule not met

###

# assay_summary: ATP-based viability of Huh7 replicon cells – cell-based, CellTiter-Glo luminescence, basal, 48 h, cytotoxicity control for HCV replication inhibitor project, primary screen (AID 1143);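 note: Huh7 hepatoma cells carrying a hepatitis C replication reporter with no stimulus; test concentration not given here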
# condition_label: higher = more signal, called active from +8 up or from −8 down
experimental_endpoint: z-score
In your answer, state the number alone without any accompanying words.

Below, 3 molecules whose answers are already recorded.
molecule	z-score
C=CCN1C(=O)[C@@]2(O[C@@H](CCn3cc([C@H](O)c4ccccc4)nn3)[C@H]([Si](C)(C)c3ccc(OC)cc3)[C@H]2C)c2cc(NC(=O)c3ccc(OC)cc3)ccc21	-3.14
CCC[C@@H]1C[C@@]1(CCC)[C@@H](NC(=O)c1ccco1)c1ccc(Cl)cc1	-2.99
CC(C)C(CO)N1C(=O)[C@@H]2[C@H]3C(=O)OCC=C[C@H]3OC23C=CCN(Cn2nnc4ccccc42)C(=O)[C@@H]13 (stereo partly drawn)	0.44

Next molecule, z-score to be filled in.
Ask | // returns reported z-score for input "O=c1c2ccc(Br)cc2nc(-c2ccccc2)n1Cc1cccc(O)c1"
Reply | -0.913

###

# assay_summary: S. pombe growth modifiers, basal conditions – strain 972, OD600, 24 h, no modulator, primary screen (AID 1090);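 note: basal condition with compound alone and no growth modifier present; test concentration not given here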
# condition_label: S. pombe 972 growth, higher = more signal, called active from +8 up or from −8 down
Active and inactive are the calls of the source.
experimental_endpoint: z-score

Below, 6 compounds whose answers are already recorded.
compound	experimental_endpoint	assay_value
C=CC[C@]1(C(=O)N(C)C)N=C(c2ccc(OCCCO)cc2)O[C@H]1c1ccccc1	z-score	-3.16 (inactive)
C=CCNC(=O)[C@H]1[C@@H]2C(=O)O[C@@H](c3ccccc3)[C@@H](c3ccccc3)N2[C@@H](c2ccc(OCCO)cc2)[C@]12C(=O)N(C(=O)OCCOC)c1ccc(C#CC3=CCCCC3)cc12	z-score	0.656 (inactive)
N#Cc1ccc(NN2C(C(O)c3ccco3)C=CC3C(=O)N(c4ccccc4)C(=O)C32)cc1 (configuration not stated)	z-score	0.376 (inactive)
CC(C)C[C@@H]1NC(=O)[C@@H]2C[C@H](C(=O)NCc3ccc(F)cc3)[C@H](c3ccc(O)cc3)N2C1=O	z-score	-0.352 (inactive)
[N-]=[N+]=NCc1ccccc1[C@H]1OC(c2ccc(OCCCO)cc2)=N[C@@]1(Cc1ccccc1)C(N)=O	z-score	-1.07 (inactive)
COc1ccc([Si](C)(C)[C@@H]2[C@@H](CC(=O)N3Cc4ccccc4C[C@H]3CO)O[C@]3(C(=O)N(Cc4cccc(N5CCCCC5=O)c4)c4ccccc43)[C@H]2C)cc1	z-score	1.41 (inactive)

Next compound, z-score to be filled in.
Ask | // returns reported z-score for input "COc1ccc([Si](C)(C)[C@H]2[C@H](CCn3cc(CCO)nn3)O[C@@]3(C(=O)N(Cc4cccc(N5C(=O)c6cccc7cccc5c67)c4)c4ccccc43)[C@@H]2C)cc1"
Reply | 0.903 (inactive)

###

# assay_summary: probe aNog binding to arrayed compounds – biochemical, biotinylated probe, 635/667 nm fluorescence, primary screen (AID 1115);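 note: probe is biotinylated aNog protein used at 0.15 µg/mL for 1 h at 4 C; z-score combines 667 nm fluorescence of each spot with its signal to noise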
# condition_label: small-molecule microarray, higher = more signal
Returns t if the recorded composite z-score is greater than or equal to -0.09, and f otherwise.

molecule	discrete_label
C=C(C)[C@@H]1CC=C(C(O)C2C=CC3C(=O)N(C4CCCCC4)C(=O)C3N2Nc2ccc(OC)cc2)CC1 (stereo partly specified)	f
C=CCC(OC(C)=O)[C@@H]1[C@@H](N(Cc2cccc3ccccc23)C(=O)Cc2ccc(F)cc2)c2cc(OCCCO)ccc2N1C(=O)Cc1ccc(OC)cc1 (stereo partly specified)	f
C=CCC(OC(C)=O)[C@@H]1[C@@H](N(Cc2ccc(-c3ccccc3)cc2)C(=O)Cc2ccc(OC)cc2)c2cc(OCCCO)ccc2N1C(=O)c1ccc(-c2ccccc2)cc1 (stereo partly specified)	f
COCCOC(=O)N1C(=O)[C@@]2(c3ccccc31)[C@H](c1ccccc1OCCO)N1[C@H](c3ccccc3)[C@H](c3ccccc3)OC(=O)[C@H]1[C@@H]2C(=O)N1CCc2cc(OC)c(OC)cc2C1	t

Alright, here's another molecule for you.
Ask | Check the entry "O=C1N(CCS(=O)(=O)c2ccccc2)c2ccccc2[C@H]2OC(c3ccc(OCCCO)cc3)=N[C@@]12CCS(=O)(=O)c1ccccc1" : does composite z-score equal or exceed -0.09?
Reply | t

###

# assay_summary: probe aNog binding to arrayed compounds – biochemical, biotinylated probe, 635/667 nm fluorescence, primary screen (AID 1115);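 note: probe is biotinylated aNog protein used at 0.15 µg/mL for 1 h at 4 C; z-score combines 667 nm fluorescence of each spot with its signal to noise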
# condition_label: small-molecule microarray, higher = more signal
Just so you know, the groups by composite z-score go like this: lower level = under -0.4, middle level = from -0.4 up to 0.1, upper level = 0.1 and over

compound	discrete_label
O=C1O[C@H](c2ccccc2)[C@H](c2ccccc2)N2[C@H]1[C@@H](C(=O)N1CCCCCCC1)[C@]1(C(=O)Nc3ccc(C#CCCO)cc31)[C@H]2c1ccc(OCCO)cc1	upper level
COCCOC(=O)N1C(=O)[C@@]2(c3cc(C#CCNC(N)=O)ccc31)[C@H](C(=O)N1CCCCCCC1)[C@H]1C(=O)O[C@H](c3ccccc3)[C@H](c3ccccc3)N1[C@@H]2c1ccc(OCCO)cc1	middle level
CCCC[C@H]1OB(O)C[C@H]2C1=C(COc1ccccc1)Cn1c(=O)n(-c3ccccc3)c(=O)n12	lower level

Alright, here's another compound for you.
Ask | Lab log: "O=C1O[C@@H](c2ccccc2)[C@@H](c2ccccc2)N2[C@@H](c3ccc(O)cc3)[C@]3(C(=O)Nc4ccc(C#CC5(O)CCCCCC5)cc43)[C@@H](C(=O)N3CCN(c4ncccn4)CC3)[C@H]12" — assign composite z-score category
Reply | upper level

###

# system_name: Alpha-bungarotoxin (Bungarus multicinctus) (UniProt P60615)
# Sequence (P60615 whole entry, looked up): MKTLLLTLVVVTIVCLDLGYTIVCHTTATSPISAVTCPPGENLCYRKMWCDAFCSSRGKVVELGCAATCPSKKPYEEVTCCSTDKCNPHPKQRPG
# assay_summary: compounds binding labelled alpha-BTX control protein – biochemical, small-molecule microarray, Alexa647 label, 635/667 nm fluorescence, artefact control for SMM control protein annotation, profiling panel (AID 1117)
# condition_label: alpha-BTX-A647 binding fluorescence, higher = more signal
experimental_endpoint: composite z-score
In your answer, state the number alone without any accompanying words.

Below, 3 compounds whose answers are already recorded.
compound	experimental_endpoint	assay_value
COC(=O)[C@@]1(Cc2ccccc2)[C@H]2c3cc(C(=O)N4CCCC4)n(Cc4ccccc4)c3C[C@H]2CN1C(=O)c1ccccc1	composite z-score	0.401
COC(=O)C(CC#Cc1ccc2c(c1)[C@]1(C(=O)N2)[C@H](c2ccc(OCCO)cc2)N2[C@H](c3ccccc3)[C@H](c3ccccc3)OC(=O)[C@H]2[C@@H]1C(=O)O)C(=O)OC	composite z-score	1.83
C=CC[C@]1(C(=O)N2CCOCC2)N=C(c2ccc(OCCCO)cc2)O[C@H]1c1ccccc1CN=[N+]=[N-]	composite z-score	0.948

Ask | // returns reported composite z-score for input CC(C)C[C@H]1NC(=O)[C@H](C)NC(=O)[C@@]23C(=O)N[C@@H](Cc4ccccc4)C2[C@H](C)[C@@]2(C)O[C@H]2C3/C=C/C/C=C\CNC1=O (stereo partly drawn)
Reply | -0.086

Ask | // returns reported composite z-score for input "COc1ccc(C(=O)Nc2ccc(CN3C(=O)[C@]4(O[C@H](CCn5cc([C@H](O)c6ccccc6)nn5)[C@@H]([Si](C)(C)c5ccc(OC)cc5)[C@@H]4C)c4ccccc43)cc2)cc1"
Reply | 1.14

Ask | // returns reported composite z-score for input "NC(=O)NCC#Cc1ccc2c(c1)[C@]1(C(=O)N2)[C@H](c2ccc(OCCO)cc2)N2[C@H](c3ccccc3)[C@H](c3ccccc3)OC(=O)[C@H]2[C@@H]1C(=O)N1CCN(c2ncccn2)CC1"
Reply | 1.21

Ask | // returns reported composite z-score for input "O=C1O[C@H](c2ccccc2)[C@H](c2ccccc2)N2[C@H]1[C@@H](C(=O)N1CCN(c3ncccn3)CC1)[C@]1(C(=O)Nc3ccc(C#CCCO)cc31)[C@H]2c1ccccc1OCCO"
Reply | 1.77
